- System: M19-MEL
- assay info: NCI tumour cell line growth inhibition, 48 h
Calls of active or inactive are those of the source. No stated cut-off is given here; in the data, active = GI50 up to about 1.1 µM and inactive = higher.
measurement name: GI50

Example results:
{"molecule": "COc1cccc2cc(C)c(C(=O)c3ccccc3)nc12", "reported": "> 100 µM (inactive)"}
{"molecule": "N#CC1CCCCOCCOCCOCCOCCOCCCCCC1=O (stereo not drawn)", "reported": "> 100 µM (inactive)"}

Lab note: each molecule below needs its GI50 filled in.
1. CN1CN(C2OC(CO)C(O)C2O)c2nc(N)[nH]c(=O)c21 (stereo not drawn)
2. COc1ccc(NC(=O)CC/C(CC(=O)c2ccco2)=N/NC(=O)C(N)=O)cc1
3. COC(=O)c1cc(=O)nc2cc3cccccc3n12
4. CCN(CC)CCC(=O)Nc1ccc2c(c1)C(=O)c1ccc(NC(=O)CCN(CC)CC)cc1C2=O

[reply]
1. > 100 µM (inactive)
2. 74.6 µM (inactive)
3. > 100 µM (inactive)
4. > 100 µM (inactive)

Lab note: each molecule below needs its GI50 filled in.
1. Cc1nc2ccccc2c(=O)n1/N=C(\N=N\c1cc(Cl)ccc1Cl)c1cccc(-c2ccco2)c1
2. COc1ccc(/C(Cl)=C(\C=O)c2ccc(Cl)c(Cl)c2)cc1
3. COc1c(C)cc2c(c1O)C1C3[C@H]4SC[C@@]5(NCCC6=C5NC5C=CC=CC65)C(=O)OCC(c5c6c(c(C)c(OC(C)=O)c54)OCO6)N3[C@@H](O)C(C2)N1C (stereo partly drawn)
4. CC(=O)O/C=C(/C=C/OC(C)=O)C(C/C=C(\C)C#CC=C(C)C)OC(C)=O (stereo not drawn)
5. COCN1COCN(C)C1=O
6. COc1ccc2c(c1)CCCN2CCCCCCCCCCN(CCC(C)C)CCC(C)C
7. CCOC1=NC(=O)CC(c2ccccc2)S1 (stereo not drawn)
8. Cc1cc(O)c2c(c1)C(=O)c1c(c(O)cc(O)c1-c1c(O)cc(O)c3c1C(=O)c1cc(C)cc(O)c1C3=O)C2=O

[reply]
1: > 100 µM (inactive); 2: 13.1 µM (inactive); 3: < 0.01 µM (active); 4: 20.8 µM (inactive); 5: > 100 µM (inactive); 6: 15.3 µM (inactive); 7: > 100 µM (inactive); 8: 17.1 µM (inactive)
